src = the supplement of paper PMC11417369

System: PfAP2-EXP AP2 domain (GST-tagged)
PROCEDURE_SUMMARY: gcPBM binding intensity (ln(normalized median fluorescence intensity)); higher = stronger DNA binding
The full ranking holds about 25,000 sequences; the median of “ln(normalized median fluorescence intensity)” is about 8.6, and the highest 2% start at about 10. The entries come from a sample that favours the highest values as a whole.
ENDPOINT: gcPBM binding intensity (ln)

RESIDUE_SEQUENCE: TATATATATAAAATATGTACATAAAATTATTTATTT [XGTACX_site7666]
ENDPOINT: gcPBM binding intensity (ln)
NUMBER: 8.61

RESIDUE_SEQUENCE: AAAAATAAAAAATATAAAAATATAAAAATATAAAAA [XGTACX_negctrl_site51]
ENDPOINT: gcPBM binding intensity (ln)
NUMBER: 8.32

RESIDUE_SEQUENCE: GGAATTATAATAAATGGTACACATAAAAAAAAAAAA [XGTACX_site8343]
ENDPOINT: gcPBM binding intensity (ln)
NUMBER: 8.77

RESIDUE_SEQUENCE: AATTGAAAAGAATGAAGTACACATTTGATGATACAT [XGTACX_site5182]
ENDPOINT: gcPBM binding intensity (ln)
NUMBER: 8.62

RESIDUE_SEQUENCE: TTATAATAAATATATAAAAAAAAAAAAAAAAAAAAA [CACACA_negctrl_site1639]
ENDPOINT: gcPBM binding intensity (ln)
NUMBER: 7.97

RESIDUE_SEQUENCE: AAAAAAAAAAAAAAATATAAATATATATATATATAT [GTGCAC_negctrl_site28]
ENDPOINT: gcPBM binding intensity (ln)
NUMBER: 10

RESIDUE_SEQUENCE: GTTATACATTTGAAAAGTACTCATGATTTTTTTTTT [XGTACX_site8177]
ENDPOINT: gcPBM binding intensity (ln)
NUMBER: 8.75

RESIDUE_SEQUENCE: ATATAAATAAAAAAAAAAAAAAAAAAAAAAAAAAAA [CACACA_negctrl_site972]
ENDPOINT: gcPBM binding intensity (ln)
NUMBER: 8.01

RESIDUE_SEQUENCE: ATAAAAAAAAAAAAAAAATATATATATATATATATA [XGTACX_negctrl_site424]
ENDPOINT: gcPBM binding intensity (ln)
NUMBER: 10.2
